- MEASUREMENT NOTES: Acute toxicity test, single intravenous dosage (LD50), rat
- Set-up: species or system rat (Slc:SD)
- MEASUREMENT CONDITIONS: in vivo, female

| QUERY SMILES | UNITS TEXT | LD50 |
| --- | --- | --- |
| CCCCCCCCCCCCCCCCCCNC(=O)OC1CCN(C(=O)OC[C@H](COC(=O)N(Cc2cccc[n+]2CC)C(=O)c2ccccc2OC)OC)CC1 | mg/kg | 22.9 |

* * *

- MEASUREMENT NOTES: Acute toxicity test, single intravenous dosage (LD50), mouse
- Parameters: species or system mouse (Slc:ICR)
- MEASUREMENT CONDITIONS: in vivo, male

| QUERY SMILES | UNITS TEXT | LD50 |
| --- | --- | --- |
| CCCCCCCCCCCCCCCCCCNC(=O)OC1CCN(C(=O)OC[C@H](COC(=O)N(Cc2cccc[n+]2CC)C(=O)c2ccccc2OC)OC)CC1 | mg/kg | 46.8 |

* * *

- MEASUREMENT NOTES: Acute toxicity test, single intravenous dosage (LD50), mouse
- Design: species or system mouse (Slc:ICR)
- MEASUREMENT CONDITIONS: in vivo, female

| QUERY SMILES | LD50 [mg/kg] |
| --- | --- |
| CCCCCCCCCCCCCCCCCCNC(=O)OC1CCN(C(=O)OC[C@H](COC(=O)N(Cc2cccc[n+]2CC)C(=O)c2ccccc2OC)OC)CC1 | 50 |

* * *

- MEASUREMENT NOTES: Acute toxicity test, single intravenous dosage (LD50), rat
- Set-up: species or system rat (Slc:SD)
- MEASUREMENT CONDITIONS: in vivo, male
RECORDED METRIC: LD50 (mg/kg)

| COMPOUND | RECORDED METRIC | ASSAY VALUE |
| --- | --- | --- |
| CCCCCCCCCCCCCCCCCCNC(=O)OC1CCN(C(=O)OC[C@H](COC(=O)N(Cc2cccc[n+]2CC)C(=O)c2ccccc2OC)OC)CC1 [Compound (II)] | LD50 | 18.2 |
